target: estrogen receptors in MCF7 cells (Homo sapiens (Human), UniProt P03372); test: Degradation of estrogen receptors in MCF7 cells (in-cell western); assay type: cell-based; details: 24 hours, 0.1 µM fulvestrant = 100% degradation control, read-out: Maximum degradation rate
Sequence (P03372 whole entry): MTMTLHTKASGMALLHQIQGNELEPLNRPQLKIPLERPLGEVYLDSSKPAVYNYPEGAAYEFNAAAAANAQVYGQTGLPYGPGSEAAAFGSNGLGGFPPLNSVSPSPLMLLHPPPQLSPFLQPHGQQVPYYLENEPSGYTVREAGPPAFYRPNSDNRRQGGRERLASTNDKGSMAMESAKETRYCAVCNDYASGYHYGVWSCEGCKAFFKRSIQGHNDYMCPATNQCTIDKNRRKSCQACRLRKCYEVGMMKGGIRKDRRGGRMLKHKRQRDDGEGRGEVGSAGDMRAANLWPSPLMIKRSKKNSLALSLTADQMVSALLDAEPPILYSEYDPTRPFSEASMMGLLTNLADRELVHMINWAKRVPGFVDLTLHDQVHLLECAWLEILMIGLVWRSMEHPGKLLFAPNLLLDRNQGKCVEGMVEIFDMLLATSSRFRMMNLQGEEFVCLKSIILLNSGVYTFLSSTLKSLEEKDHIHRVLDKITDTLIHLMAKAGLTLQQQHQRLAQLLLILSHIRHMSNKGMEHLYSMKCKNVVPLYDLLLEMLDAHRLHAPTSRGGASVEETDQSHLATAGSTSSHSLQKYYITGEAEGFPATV
Dmax under 90% gets t, anything at or over 90% gets f.

compound	class_assignment
C[C@@H]1Cc2c([nH]c3ccccc23)[C@@H](c2c(F)cc(N[C@@H]3CN(CCCF)C[C@H]3F)cc2F)N1CC(F)(F)F (stereo in doubt)	t

Query: Identify whether the compound C[C@@H]1Cc2c([nH]c3ccccc23)[C@@H](c2ccc(NC3CCN(CCCF)C3)cn2)N1CC(F)(F)F (stereo partly drawn) records Dmax below 90%.
Result: f

Query: Please indicate whether the reported Dmax of C[C@@H]1Cc2c([nH]c3ccccc23)C(c2c(F)cc(N[C@H]3CCN(CCCF)C3)cc2F)N1CC(F)(F)F (stereo in doubt) is strictly below 90%.
Result: f

Query: State whether 90% exceeds Dmax recorded for C[C@@H]1Cc2c([nH]c3ccccc23)[C@@H](c2ccc(N[C@H]3CCN(CCCF)C3)cn2)N1CC(F)(F)F .
Result: f

----------
experiment: Pharmacokinetic evaluation in mice; type: in vivo; conditions: female, mouse, plasma; CD-1 mice, PO 10 mg/kg vs IV 1 mg/kg
property_name: bioavailability
Please give the number followed by its unit.

A selection of reference data follows.
molecule	bioavailability
C[C@@H]1Cc2c([nH]c3ccccc23)[C@@H](c2ccc(N[C@H]3CCN(CCCF)C3)cn2)N1CC(F)(F)F [Example 3]	68%
C[C@@H]1Cc2c([nH]c3ccccc23)C(c2c(F)cc(N[C@H]3CCN(CCCF)C3)cc2F)N1CC(F)(F)F (stereo in doubt) [Example 4]	60%

According to the records, this molecule C[C@@H]1Cc2c([nH]c3ccccc23)C(c2c(F)cc(N[C@H]3CCN(CCCF)C3)cc2F)N1CC(F)(F)CO (stereo in doubt) [Example 7] displays bioavailability of 62%

----------
assay: Plasma protein binding rate, equilibrium dialysis, mouse plasma; assay type: in vitro ADME; conditions: pH 7.4, CD-1 mouse plasma, 6 hours dialysis
# Lookup of reported fraction unbound at 6 h, 1 µM keyed by entry
Lab note: record just the number, no unit beside it.

Field: example entries. Status: answers known.
compound	fraction unbound at 6 h, 1 µM
C[C@@H]1Cc2c([nH]c3ccccc23)C(c2c(F)cc(N[C@H]3CCN(CCCF)C3)cc2F)N1CC(F)(F)F (stereo in doubt) [Example 4]	0.002
C[C@@H]1Cc2c([nH]c3ccccc23)C(c2c(F)cc(N[C@H]3CCN(CCCF)C3)cc2F)N1CC(F)(F)CO (stereo in doubt) [Example 7]	0.012

Now for a further compound.
response.value for C[C@@H]1Cc2c([nH]c3ccccc23)[C@@H](c2ccc(N[C@H]3CCN(CCCF)C3)cn2)N1CC(F)(F)F [Example 3] (field: fraction unbound at 6 h, 1 µM) = 0.019

----------
experiment: Plasma protein binding rate, equilibrium dialysis, rat plasma; type: in vitro ADME; conditions: pH 7.4, SD rat plasma, 6 hours dialysis
This section presents molecules with their documented fraction unbound at 6 h, 1 µM values.
Respond with the number and no other words.

Here is how some molecules turned out for fraction unbound at 6 h, 1 µM.
molecule	experimental_result
C[C@@H]1Cc2c([nH]c3ccccc23)C(c2c(F)cc(N[C@H]3CCN(CCCF)C3)cc2F)N1CC(F)(F)F (stereo in doubt)	0.002
C[C@@H]1Cc2c([nH]c3ccccc23)C(c2c(F)cc(N[C@H]3CCN(CCCF)C3)cc2F)N1CC(F)(F)CO (stereo in doubt)	0.015

Record C[C@@H]1Cc2c([nH]c3ccccc23)[C@@H](c2ccc(N[C@H]3CCN(CCCF)C3)cn2)N1CC(F)(F)F , field fraction unbound at 6 h, 1 µM: 0.029

----------
assay: Plasma protein binding rate, equilibrium dialysis, human plasma; assay type: in vitro ADME; conditions: pH 7.4, 6 hours dialysis
# fraction unbound at 6 h, 1 µM per record follows

Would you please look over these solved cases?
compound	experimental_result
C[C@@H]1Cc2c([nH]c3ccccc23)C(c2c(F)cc(N[C@H]3CCN(CCCF)C3)cc2F)N1CC(F)(F)CO (stereo in doubt)	0.005
C[C@@H]1Cc2c([nH]c3ccccc23)C(c2c(F)cc(N[C@H]3CCN(CCCF)C3)cc2F)N1CC(F)(F)F (stereo in doubt)	0.002

// next entry
The reported fraction unbound at 6 h, 1 µM of the compound C[C@@H]1Cc2c([nH]c3ccccc23)[C@@H](c2ccc(N[C@H]3CCN(CCCF)C3)cn2)N1CC(F)(F)F was 0.012

----------
target: CYP2C9 (Homo sapiens (Human), UniProt P11712); experiment: Inhibition of CYP2C9 enzymatic activity in human liver microsomes; format: in vitro ADME; details: substrate diclofenac
Sequence (P11712 whole entry): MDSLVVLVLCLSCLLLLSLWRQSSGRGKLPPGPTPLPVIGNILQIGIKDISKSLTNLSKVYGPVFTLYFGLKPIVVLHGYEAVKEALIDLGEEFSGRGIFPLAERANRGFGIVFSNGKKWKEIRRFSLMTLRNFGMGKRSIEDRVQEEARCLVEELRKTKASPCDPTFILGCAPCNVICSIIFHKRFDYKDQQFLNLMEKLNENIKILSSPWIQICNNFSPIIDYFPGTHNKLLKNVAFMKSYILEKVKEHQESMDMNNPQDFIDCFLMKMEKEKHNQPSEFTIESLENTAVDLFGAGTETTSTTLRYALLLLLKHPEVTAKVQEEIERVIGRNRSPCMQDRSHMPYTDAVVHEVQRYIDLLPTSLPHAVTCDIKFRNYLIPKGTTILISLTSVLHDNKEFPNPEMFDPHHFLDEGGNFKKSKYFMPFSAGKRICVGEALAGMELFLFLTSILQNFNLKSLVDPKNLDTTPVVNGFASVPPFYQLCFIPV
Listed next: entries and their corresponding IC50.
# output: bare number, implied unit µM

compound	property_name	experimental_result
C[C@@H]1Cc2c([nH]c3ccccc23)C(c2c(F)cc(N[C@H]3CCN(CCCF)C3)cc2F)N1CC(F)(F)F (stereo in doubt)	IC50	20

Memo: C[C@@H]1Cc2c([nH]c3ccccc23)C(c2c(F)cc(N[C@H]3CCN(CCCF)C3)cc2F)N1CC(F)(F)CO (stereo in doubt) , reported IC50: 8

Values were extracted from patent US20230348459A1.
